System: jimpy (Plp1 jimpy) mouse iPSC-derived oligodendrocyte progenitor cells
measurement-description: total cell number (DAPI+ nuclei) relative to DMSO vehicle control (SDs above negative control mean); higher = more surviving cells
measurement-setup: 10 µM; 3 days
Whole data set: some 2,600 compounds, median “total cell number (DAPI+ nuclei) relative to DMSO vehicle control” near -1.4, cut for the lowest 2% near -23. For the sample, the lowest values were picked, then their nearest neighbours and some compounds at random.
result-type: total cell number

compound="COc1ccc2[nH]c([S@@+]([O-])Cc3ncc(C)c(OC)c3C)nc2c1 [Esomeprazole Sodium]" recorded_result=1.8
compound="COc1cc2ncnc(Nc3ccc(F)c(Cl)c3)c2cc1OCCCN1CCOCC1 [Gefitinib (ZD1839)]" recorded_result=-20.6
compound=Nc1nc(Cl)nc2c1ncn2[C@@H]1O[C@H](CO)[C@@H](O)[C@H]1O recorded_result=-3.18
compound=COc1cc(Nc2ncc3c(n2)-c2ccc(Cl)cc2C(c2c(F)cccc2OC)=NC3)ccc1C(=O)O recorded_result=-12.8
compound=O=c1cc2c(=O)oc3cc(O)c(O)oc3c2c(O)c1O recorded_result=-1.51
compound="COc1ccc2[nH]c([S+]([O-])Cc3ncc(C)c(OC)c3C)nc2c1 (stereo not drawn)" recorded_result=5.38
compound=COc1c(C)cnc(Cn2cnc3c(Cl)nc(N)nc32)c1C recorded_result=-26.3
compound="COc1ccc2[nH]c([S@@+]([O-])Cc3ncc(C)c(OC)c3C)nc2c1 [Esomeprazole magnesium dihydrate]" recorded_result=-0.604

* * *

Below, each entry is listed alongside its reported total cell number.
Test system: jimpy (Plp1 jimpy) mouse iPSC-derived oligodendrocyte progenitor cells
measurement-description: total cell number (DAPI+ nuclei) relative to DMSO vehicle control (SDs above negative control mean); higher = more surviving cells
measurement-setup: 10 µM; 3 days
Structures can show the parent of a compound that is named as a salt. In all, about 2,600 compounds were measured (“total cell number (DAPI+ nuclei) relative to DMSO vehicle control”: median about -1.4, lowest 2% from about -23 on). Many of the other results were omitted from the sample, so the lowest values are more common in it than they were.
result-type: total cell number

compound=CCCCCCCCCCCCCCCCn1cc[n+](Cc2ccccc2)c1C result_type="total cell number" recorded_result=-16.7
compound="COc1cc(C(C)=O)ccc1OCCCN1CCC(c2noc3cc(F)ccc23)CC1 [Iloperidone]" result_type="total cell number" recorded_result=-2.6
compound="CN(C)CCN1C(=O)c2cccc3cc(N)cc(c23)C1=O [Amonafide]" result_type="total cell number" recorded_result=-24
compound=O=C(Nc1ccccc1)N1CCN(c2nc(-c3ccccc3)ns2)CC1 result_type="total cell number" recorded_result=0.543
compound="CCCCCCCC/C=C\\CCCCCCCC(=O)NCc1ccc(O)c(OC)c1 [Olvanil]" result_type="total cell number" recorded_result=-4.4
compound=COc1cc2nccc(Oc3ccc(NC(=O)C4(C(=O)Nc5ccc(F)cc5)CC4)cc3)c2cc1OC result_type="total cell number" recorded_result=-20
compound="COC1=CC(c2cc3ccccc3[nH]2)=N/C1=C\\c1[nH]c(C)cc1C [Obatoclax Mesylate (GX15-070)]" result_type="total cell number" recorded_result=-27.6
compound=NC1(c2ccc(-c3nc4ccn5c(=O)[nH]nc5c4cc3-c3ccccc3)cc2)CCC1 result_type="total cell number" recorded_result=-25.6
compound=COc1cc2ncnc(Nc3ccc(F)c(Cl)c3)c2cc1NC(=O)/C=C/CN1CCCCC1 result_type="total cell number" recorded_result=-11.6
compound=CCc1ccc2c(-c3cccc(Cl)c3)nc(=O)n(CC)c2n1 result_type="total cell number" recorded_result=0.722
compound=Cc1cc(C)c(/C=C2\C(=O)Nc3ccccc32)[nH]1 result_type="total cell number" recorded_result=-3.96
compound=Cc1c(C(=O)N2CCOc3ccc(-c4ccc(N)nc4)cc3C2)ccc(S(C)(=O)=O)c1F result_type="total cell number" recorded_result=-3.21
compound="c1cnc2cc3c(cc2n1)[C@@H]1CNC[C@H]3C1 [Varenicline Tartrate]" result_type="total cell number" recorded_result=1.55
compound=CCCCOc1ccc(C(=O)Nc2ccc(F)cc2F)cc1 result_type="total cell number" recorded_result=1.72
compound="O=C(CCCCCN1C(=O)c2cccc3cccc(c23)C1=O)NO [Scriptaid]" result_type="total cell number" recorded_result=-6.21
compound=CN[C@@H](C)C(=O)N[C@H](C(=O)N1CCC[C@H]1C(=O)Nc1snnc1-c1ccccc1)C1CCCCC1 result_type="total cell number" recorded_result=-4.08
compound=C=CC(=O)Nc1ccc2ncnc(Nc3ccc(OCc4cccc(F)c4)c(Cl)c3)c2c1 result_type="total cell number" recorded_result=-12.9
compound="Cc1cc(C)c(/C=C2\\C(=O)Nc3ccccc32)[nH]1 [Semaxanib (SU5416)]" result_type="total cell number" recorded_result=-1.49
compound="CN(C)C/C=C/C(=O)Nc1cc2c(Nc3ccc(F)c(Cl)c3)ncnc2cc1O[C@H]1CCOC1 [Afatinib (BIBW2992)]" result_type="total cell number" recorded_result=-25.6

* * *

System: jimpy (Plp1 jimpy) mouse iPSC-derived oligodendrocyte progenitor cells
measurement-description: total cell number (DAPI+ nuclei) relative to DMSO vehicle control (SDs above negative control mean); higher = more surviving cells
measurement-setup: 10 µM; 3 days
Where a name gives a salt, the structure may show the parent alone. The full ranking holds about 2,600 compounds; the median of “total cell number (DAPI+ nuclei) relative to DMSO vehicle control” is about -1.4, and the lowest 2% start at about -23. The entries come from a sample that favours the lowest values as a whole.
Range-based classes on measured total cell number: bucket 1 = under -10, bucket 2 = from -10 up to -0.5, bucket 3 = -0.5 and over

compound=COc1cc(/C=C(\C#N)C(=O)Nc2nnc(C(F)(F)F)s2)ccc1OCc1ccc(C(F)(F)F)cc1C(F)(F)F assayed_target="jimpy (Plp1 jimpy) mouse iPSC-derived oligodendrocyte progenitor cells" assigned_class="bucket 2"
compound="C=CC(N)CCC(=O)O (racemic) [(±)-gamma-Vinyl GABA]" assayed_target="jimpy (Plp1 jimpy) mouse iPSC-derived oligodendrocyte progenitor cells" assigned_class="bucket 2"
compound=CC(C)N(CCCNC(=O)Nc1ccc(C(C)(C)C)cc1)C[C@H]1O[C@@H](n2cc(Br)c3c(N)ncnc32)[C@H](O)[C@@H]1O assayed_target="jimpy (Plp1 jimpy) mouse iPSC-derived oligodendrocyte progenitor cells" assigned_class="bucket 2"
compound=C=CC(=O)Nc1ccc2ncnc(Nc3cccc(Br)c3)c2c1 assayed_target="jimpy (Plp1 jimpy) mouse iPSC-derived oligodendrocyte progenitor cells" assigned_class="bucket 1"
compound=CNC(=O)Nc1ccc(-c2nc(N3CC4CCC(C3)O4)c3cnn(C4CCC5(CC4)OCCO5)c3n2)cc1 assayed_target="jimpy (Plp1 jimpy) mouse iPSC-derived oligodendrocyte progenitor cells" assigned_class="bucket 2"
compound=Cc1nc(N)sc1-c1ccnc(Nc2ccc(N3CCOCC3)cc2)n1 assayed_target="jimpy (Plp1 jimpy) mouse iPSC-derived oligodendrocyte progenitor cells" assigned_class="bucket 1"
compound=C#Cc1cccc(Nc2ncnc3cc(OC)c(OCCCCCCC(=O)NO)cc23)c1 assayed_target="jimpy (Plp1 jimpy) mouse iPSC-derived oligodendrocyte progenitor cells" assigned_class="bucket 1"
compound=CCN(CC)CCCCNc1ncc2cc(-c3cc(OC)cc(OC)c3)c(NC(=O)NC(C)(C)C)nc2n1 assayed_target="jimpy (Plp1 jimpy) mouse iPSC-derived oligodendrocyte progenitor cells" assigned_class="bucket 1"
compound=CN(C)c1ccc(-c2nc3ncc(Cl)c(N4CCN(CC(=O)Nc5nccs5)CC4)c3[nH]2)cc1 assayed_target="jimpy (Plp1 jimpy) mouse iPSC-derived oligodendrocyte progenitor cells" assigned_class="bucket 3"
compound=CC(C)(C)c1cnc(CSc2cnc(NC(=O)C3CCNCC3)s2)o1 assayed_target="jimpy (Plp1 jimpy) mouse iPSC-derived oligodendrocyte progenitor cells" assigned_class="bucket 1"
compound=CC(C)(N)c1ncc(-c2ccc(OC(F)(F)F)cc2)[nH]1 assayed_target="jimpy (Plp1 jimpy) mouse iPSC-derived oligodendrocyte progenitor cells" assigned_class="bucket 2"
compound=O=C(O)CC[C@H]1CC[C@@](c2cc(F)ccc2F)(S(=O)(=O)c2ccc(Cl)cc2)CC1 assayed_target="jimpy (Plp1 jimpy) mouse iPSC-derived oligodendrocyte progenitor cells" assigned_class="bucket 3"
compound="O=C1CCC[C@@H]2[C@H]3CCC[N+]4([O-])CCC[C@@H](CN12)[C@@H]34 (stereo partly specified)" assayed_target="jimpy (Plp1 jimpy) mouse iPSC-derived oligodendrocyte progenitor cells" assigned_class="bucket 3"
compound="O=C(Nc1ccccc1C(=O)NC1CCCCNC1=O)c1cc2ccccc2s1 (stereo unspecified)" assayed_target="jimpy (Plp1 jimpy) mouse iPSC-derived oligodendrocyte progenitor cells" assigned_class="bucket 3"
compound="CC(C)(O)CC[C@@H](O)[C@](C)(O)[C@H]1CC[C@@]2(O)C3=CC(=O)[C@@H]4C[C@@H](O)[C@@H](O)C[C@]4(C)[C@H]3CC[C@]12C [20-Hydroxyecdysone]" assayed_target="jimpy (Plp1 jimpy) mouse iPSC-derived oligodendrocyte progenitor cells" assigned_class="bucket 2"
compound=Cc1ccc(C(=O)Cn2c3c(sc2=N)CCCC3)cc1 assayed_target="jimpy (Plp1 jimpy) mouse iPSC-derived oligodendrocyte progenitor cells" assigned_class="bucket 3"
compound="Cc1[nH]c(/C=C2\\C(=O)Nc3ccccc32)c(C)c1CCC(=O)O [TSU-68 (SU6668, Orantinib)]" assayed_target="jimpy (Plp1 jimpy) mouse iPSC-derived oligodendrocyte progenitor cells" assigned_class="bucket 3"
compound="CCN(CC)CCNC(=O)c1c(C)[nH]c(/C=C2\\C(=O)Nc3ccc(F)cc32)c1C [Sunitinib malate]" assayed_target="jimpy (Plp1 jimpy) mouse iPSC-derived oligodendrocyte progenitor cells" assigned_class="bucket 1"
compound="C=C1C(=O)O[C@@H]2/C=C(\\C)CC/C=C(\\C)CC[C@@H]12 [Costunolide]" assayed_target="jimpy (Plp1 jimpy) mouse iPSC-derived oligodendrocyte progenitor cells" assigned_class="bucket 1"
compound=OC[C@H]1O[C@@H](n2cnc3c(N[C@H]4CCC[C@@H]4O)ncnc32)[C@H](O)[C@@H]1O assayed_target="jimpy (Plp1 jimpy) mouse iPSC-derived oligodendrocyte progenitor cells" assigned_class="bucket 3"
compound="COc1cc2/c(=N/c3ccc(Br)cc3F)nc[nH]c2cc1OCC1CCN(C)CC1 [Vandetanib (ZD6474)]" assayed_target="jimpy (Plp1 jimpy) mouse iPSC-derived oligodendrocyte progenitor cells" assigned_class="bucket 1"
compound=Nc1n[n+]([O-])c2ccccc2[n+]1[O-] assayed_target="jimpy (Plp1 jimpy) mouse iPSC-derived oligodendrocyte progenitor cells" assigned_class="bucket 2"
compound="COc1cc(CCc2cc(NC(=O)c3ccc(N4CC(C)NC(C)C4)cc3)n[nH]2)cc(OC)c1 (stereo unspecified)" assayed_target="jimpy (Plp1 jimpy) mouse iPSC-derived oligodendrocyte progenitor cells" assigned_class="bucket 1"
compound=O=C(c1ccc(/C=C/c2n[nH]c3ccccc23)cc1)N1CCNCC1 assayed_target="jimpy (Plp1 jimpy) mouse iPSC-derived oligodendrocyte progenitor cells" assigned_class="bucket 1"
compound=CC(C)C[C@H](C(=O)O)c1cc(-c2ccc(C(F)(F)F)cc2)cc(-c2ccc(C(F)(F)F)cc2)c1 assayed_target="jimpy (Plp1 jimpy) mouse iPSC-derived oligodendrocyte progenitor cells" assigned_class="bucket 3"
compound="CC1(C)S[C@@H]2[C@H](NC(=O)C(C(=O)O)c3ccccc3)C(=O)N2[C@H]1C(=O)O (stereo partly specified) [Carbenicillin disodium]" assayed_target="jimpy (Plp1 jimpy) mouse iPSC-derived oligodendrocyte progenitor cells" assigned_class="bucket 3"
compound="COc1ccc(C2CC(=O)c3c(O)cc(OC4OC(COC5OC(C)C(O)C(O)C5O)C(O)C(O)C4O)cc3O2)cc1OC (stereo unspecified)" assayed_target="jimpy (Plp1 jimpy) mouse iPSC-derived oligodendrocyte progenitor cells" assigned_class="bucket 2"
compound=CCCNS(=O)(=O)Nc1ncnc(OCCOc2ncc(Br)cn2)c1-c1ccc(Br)cc1 assayed_target="jimpy (Plp1 jimpy) mouse iPSC-derived oligodendrocyte progenitor cells" assigned_class="bucket 2"
compound=c1coc(CNc2ncnc3[nH]cnc23)c1 assayed_target="jimpy (Plp1 jimpy) mouse iPSC-derived oligodendrocyte progenitor cells" assigned_class="bucket 3"
compound="CCOC(=O)c1c(CSc2ccccc2)n(C)c2cc(Br)c(O)c(CN(C)C)c12 [Arbidol HCl]" assayed_target="jimpy (Plp1 jimpy) mouse iPSC-derived oligodendrocyte progenitor cells" assigned_class="bucket 2"
compound=C[C@@]1(C(=O)Nc2ccc(F)nc2)CCCN1c1nc(Nc2cc(C3CC3)n[nH]2)c2cccn2n1 assayed_target="jimpy (Plp1 jimpy) mouse iPSC-derived oligodendrocyte progenitor cells" assigned_class="bucket 1"
compound="CCN(CC)CCNC(=O)c1cc(S(C)(=O)=O)ccc1OC [Tiapride hydrochloride]" assayed_target="jimpy (Plp1 jimpy) mouse iPSC-derived oligodendrocyte progenitor cells" assigned_class="bucket 2"
compound="CCN(CC)CCNC(=O)c1c(C)[nH]c(/C=C2\\C(=O)Nc3ccc(F)cc32)c1C [Sunitinib Malate]" assayed_target="jimpy (Plp1 jimpy) mouse iPSC-derived oligodendrocyte progenitor cells" assigned_class="bucket 1"
compound=COc1cc(OC)cc(-c2cc3cnc(N)nc3nc2NC(=O)NC(C)(C)C)c1 assayed_target="jimpy (Plp1 jimpy) mouse iPSC-derived oligodendrocyte progenitor cells" assigned_class="bucket 2"
compound="C[N+](C)(C)CC(O)CC(=O)[O-] (racemic) [DL-Carnitine HCl]" assayed_target="jimpy (Plp1 jimpy) mouse iPSC-derived oligodendrocyte progenitor cells" assigned_class="bucket 3"
compound=COc1cc2c(Nc3ccc(NC(=O)c4ccccc4)cc3)ncnc2cc1OCCCN1CCOCC1 assayed_target="jimpy (Plp1 jimpy) mouse iPSC-derived oligodendrocyte progenitor cells" assigned_class="bucket 1"
